- System Tested: KRAS 4B G12C protein (Homo sapiens, UniProt P01116, G12C)
- Construct: This protein contained 188 amino acids in total, including an N-terminal 6-Histidine tag; made in house; host or cells: E. coli BL21
- Protocol Summary: In vitro covalent adduct formation (CAF) assay by LC-MS
- Assay type: binding
- Run Parameters: 10 minutes; compound 10 μM, protein 5 μM, 22° C.; percentage of protein bound by the compound
Experimental Readout: CAF (10 minutes/60 minutes) at 10 micromolar: 10 minutes (%)

[P] C=CC(=O)N1CCN(c2nc(OC[C@@H]3CCCN3C)nc3c2CN(C2CCc4ccccc42)C3)C[C@@H]1CO (stereo partly shown) [1-116]
[Q] C=CC(=O)N1CCN(c2nc(Oc3cnc(N)nc3C3CC3)nc3c2CN(C2CCc4ccccc42)C3)C[C@@H]1CC#N (stereo partly shown) [1-207]
Ask: # return whichever of P and Q has the smaller CAF (10 minutes/60 minutes) at 10 micromolar: 10 minutes Give the label under which the chosen entry appears.
Reply: P
(P: 2%, Q: 16%)
